Notes on Ki obtained with Carbonic anhydrase 9 (Homo sapiens, UniProt Q16790).
PROPERTY_NAME: Ki (nM)

Example compounds with recorded Ki:
ENTRY_SMILES | Ki (nM)
NS(=O)(=O)c1ccc(-n2cc(COc3ccnc(N4CCOCC4)n3)nn2)cc1 | 42.5
CN1CCN(c2nccc(OCc3cn(-c4ccc(S(N)(=O)=O)cc4)nn3)n2)CC1 | 30.4
NS(=O)(=O)c1ccc(-n2cc(COc3ccnc(N4CCN(C(c5ccccc5)c5ccccc5)CC4)n3)nn2)cc1 | 192
Cc1cc(OCc2cn(-c3ccc(S(N)(=O)=O)cc3)nn2)nc(-c2ncccc2C#N)n1 | 32
CCN1CCN(c2nccc(OCc3cn(-c4ccc(S(N)(=O)=O)cc4)nn3)n2)CC1 | 22.7

[P] NS(=O)(=O)c1ccc(-n2cc(COc3ccnc(N4CCN(c5ccccc5)CC4)n3)nn2)cc1
[Q] Cc1cc(OCc2cn(-c3ccc(S(N)(=O)=O)cc3)nn2)nc(N2CCN(Cc3ccccc3)CC2)n1
[R] Cc1cc(OCc2cn(-c3ccc(S(N)(=O)=O)cc3)nn2)nc(N2CCN(c3ccc(F)cc3)CC2)n1
[S] CCOC(=O)N1CCN(c2nccc(OCc3cn(-c4ccc(S(N)(=O)=O)cc4)nn3)n2)CC1
Please put the entries in order of rising Ki. Reply with the item labels sorted in the order that was asked for. S, P, Q, R
(S: 1.6 nM, P: 26.3 nM, Q: 41.1 nM, R: 466 nM)
